Biological target: melanocortin-1 receptor (human, UniProt Q01726 1-317)
Sequence (Q01726 whole entry): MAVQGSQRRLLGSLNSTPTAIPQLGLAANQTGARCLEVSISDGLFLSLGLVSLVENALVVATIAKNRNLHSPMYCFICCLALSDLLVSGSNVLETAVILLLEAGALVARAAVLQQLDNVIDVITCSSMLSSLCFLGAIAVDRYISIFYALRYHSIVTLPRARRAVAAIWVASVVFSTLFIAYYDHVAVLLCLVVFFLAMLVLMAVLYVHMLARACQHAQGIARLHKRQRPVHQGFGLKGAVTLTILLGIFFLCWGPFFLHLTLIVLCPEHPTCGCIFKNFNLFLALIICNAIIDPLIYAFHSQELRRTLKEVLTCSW
Assay: cell-based or functional assay
Bridge positions count the residues as written; N and C are the ends. Square brackets hold non-standard residues; d marks the D form.
Quick reference: cAMP Assay (EC-50) of the listed items.
Quick note: give the figure in nM, leave out the unit.

[
  {
    "BINDER": "Ac-RC[dA]P[dF]RWC-NH2 (disulfide 2-8; SMILES CC(=O)N[C@@H](CCCNC(=N)N)C(=O)N[C@H]1CSSC[C@@H](C(N)=O)NC(=O)[C@H](Cc2c[nH]c3ccccc23)NC(=O)[C@H](CCCNC(=N)N)NC(=O)[C@@H](Cc2ccccc2)NC(=O)[C@@H]2CCCN2C(=O)[C@@H](C)NC1=O) [Ac-Arg-cyclo[Cys-D-Ala-Pro-D-Phe-Arg-Trp-Cys]-NH2]",
    "MEASURE_UNIT": "nM",
    "RECORDED_VALUE": 280
  }
]

# evaluate next
Prompt: I would be grateful if you could share the reported cAMP Assay (EC-50) for Ac-RC[dA]Y[dF]RWC-NH2 (disulfide 2-8; SMILES CC(=O)N[C@@H](CCCNC(=N)N)C(=O)N[C@H]1CSSC[C@@H](C(N)=O)NC(=O)[C@H](Cc2c[nH]c3ccccc23)NC(=O)[C@H](CCCNC(=N)N)NC(=O)[C@@H](Cc2ccccc2)NC(=O)[C@H](Cc2ccc(O)cc2)NC(=O)[C@@H](C)NC1=O) [Ac-Arg-cyclo[Cys-D-Ala-Tyr-D-Phe-Arg-Trp-Cys]-NH2] .
Response: 301
